Measured values drawn from ChEMBL document CHEMBL1240341 for this set.

# system-tested: Tyrosine-protein kinase FRK (Homo sapiens)
# Sequence (P42685 whole entry): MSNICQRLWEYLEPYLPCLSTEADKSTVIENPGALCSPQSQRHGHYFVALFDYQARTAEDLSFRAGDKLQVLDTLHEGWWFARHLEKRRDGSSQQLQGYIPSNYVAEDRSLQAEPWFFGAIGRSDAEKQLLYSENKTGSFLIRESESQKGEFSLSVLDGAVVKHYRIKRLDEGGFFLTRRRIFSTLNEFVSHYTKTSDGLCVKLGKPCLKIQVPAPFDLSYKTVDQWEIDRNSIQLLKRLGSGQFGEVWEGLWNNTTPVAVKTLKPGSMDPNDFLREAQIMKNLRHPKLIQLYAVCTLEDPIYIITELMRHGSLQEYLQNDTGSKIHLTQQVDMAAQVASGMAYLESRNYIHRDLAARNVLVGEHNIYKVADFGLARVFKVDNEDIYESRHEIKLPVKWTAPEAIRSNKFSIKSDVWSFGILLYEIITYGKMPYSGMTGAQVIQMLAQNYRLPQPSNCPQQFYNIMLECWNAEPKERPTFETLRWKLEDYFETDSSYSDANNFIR
measure-name: IC50
Write the figure, then the unit, nothing else.

Exam item: Return IC50 for the following compound: `COc1cc(Nc2c(C#N)cnc3cc(OCCCN4CCN(C)CC4)c(OC)cc23)c(Cl)cc1Cl`
Marked response: 2.2 nM

---

measure-name: pIC50
Please note pIC50 is a logarithmic value: minus log10 of concentration in mol/L. Answer with that number alone.

Exam item: Please report pIC50 with UniProt:P41240 for item `COc1cc(Nc2c(C#N)cnc3cc(OCCCN4CCN(C)CC4)c(OC)cc23)c(Cl)cc1Cl` .
Sequence (P41240 whole entry): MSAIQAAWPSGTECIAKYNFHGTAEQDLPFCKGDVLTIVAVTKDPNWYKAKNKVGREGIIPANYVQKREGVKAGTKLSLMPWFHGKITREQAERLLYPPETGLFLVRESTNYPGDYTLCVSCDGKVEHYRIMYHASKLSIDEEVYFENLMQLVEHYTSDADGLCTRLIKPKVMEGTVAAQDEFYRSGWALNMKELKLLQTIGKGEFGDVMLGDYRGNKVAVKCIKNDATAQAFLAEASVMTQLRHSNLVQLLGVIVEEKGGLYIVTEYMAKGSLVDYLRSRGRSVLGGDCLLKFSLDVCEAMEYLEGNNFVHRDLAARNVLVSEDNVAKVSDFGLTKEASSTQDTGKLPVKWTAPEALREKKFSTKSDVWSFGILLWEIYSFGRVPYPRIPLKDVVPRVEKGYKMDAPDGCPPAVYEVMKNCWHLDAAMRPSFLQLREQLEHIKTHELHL
Marked response: 7.20
